# subject-of-test: Uptake, Dopamine (hu) (Homo sapiens)
# Construct: Eurofins Panlabs 316010
# Sequence (Q01959 whole entry): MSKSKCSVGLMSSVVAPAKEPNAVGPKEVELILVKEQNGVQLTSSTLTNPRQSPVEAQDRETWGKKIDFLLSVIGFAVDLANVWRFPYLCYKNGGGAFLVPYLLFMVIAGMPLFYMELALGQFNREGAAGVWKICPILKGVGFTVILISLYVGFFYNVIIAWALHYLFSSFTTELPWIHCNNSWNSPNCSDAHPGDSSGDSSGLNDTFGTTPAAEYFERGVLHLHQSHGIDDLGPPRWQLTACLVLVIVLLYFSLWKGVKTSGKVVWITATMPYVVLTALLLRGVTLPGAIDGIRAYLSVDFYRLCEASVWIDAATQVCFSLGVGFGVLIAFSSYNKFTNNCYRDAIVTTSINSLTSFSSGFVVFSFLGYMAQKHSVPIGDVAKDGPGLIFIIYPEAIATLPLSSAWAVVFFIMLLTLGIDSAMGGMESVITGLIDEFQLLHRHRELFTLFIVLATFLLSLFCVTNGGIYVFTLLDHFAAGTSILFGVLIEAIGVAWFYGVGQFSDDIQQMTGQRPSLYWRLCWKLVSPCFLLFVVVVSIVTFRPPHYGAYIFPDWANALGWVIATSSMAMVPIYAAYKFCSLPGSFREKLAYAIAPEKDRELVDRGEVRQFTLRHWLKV
# measurement-protocol: Functionality assay, Uptake, Eurofins Panlabs 316010
# Assay type: cell-based

[
  {
    "substance-smiles": "C[C@@H]1CN(C(=N)N)N=C1c1ccc(F)cc1O",
    "IC50": "> 30 µM"
  }
]

====

# subject-of-test: human 5-HT2AR (Homo sapiens)
# Construct: 355250 (IP1)
# Sequence (P28223 whole entry): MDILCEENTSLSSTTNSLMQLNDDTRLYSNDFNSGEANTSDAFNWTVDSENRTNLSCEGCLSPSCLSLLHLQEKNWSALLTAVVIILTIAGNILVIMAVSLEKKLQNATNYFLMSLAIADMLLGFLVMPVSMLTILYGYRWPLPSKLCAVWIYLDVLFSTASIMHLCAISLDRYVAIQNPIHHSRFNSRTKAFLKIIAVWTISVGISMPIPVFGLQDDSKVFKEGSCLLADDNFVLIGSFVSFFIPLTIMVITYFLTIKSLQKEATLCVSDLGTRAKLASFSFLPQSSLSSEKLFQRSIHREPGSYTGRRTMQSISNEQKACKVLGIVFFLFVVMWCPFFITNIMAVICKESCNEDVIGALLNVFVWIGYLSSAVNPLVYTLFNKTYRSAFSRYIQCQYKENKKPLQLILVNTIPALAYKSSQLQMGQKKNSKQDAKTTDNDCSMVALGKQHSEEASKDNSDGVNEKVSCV
# measurement-protocol: Functionality assay, HTRF quantification of IP1 accumulation in CHO-K1 cells
# condition-notes: inhibition of 5-HT (5 nM) induced IP1 response, read-out: IC50, antagonistic activity, human 5-HT2A
measure: IC50

[
  {
    "substance-smiles": "C[C@@H]1CN(C(=N)N)N=C1c1ccc(F)cc1O",
    "value-measured": "> 10 µM"
  }
]

====

# subject-of-test: 5-HT2CR (Homo sapiens, UniProt P28335)
# Sequence (P28335 33-458): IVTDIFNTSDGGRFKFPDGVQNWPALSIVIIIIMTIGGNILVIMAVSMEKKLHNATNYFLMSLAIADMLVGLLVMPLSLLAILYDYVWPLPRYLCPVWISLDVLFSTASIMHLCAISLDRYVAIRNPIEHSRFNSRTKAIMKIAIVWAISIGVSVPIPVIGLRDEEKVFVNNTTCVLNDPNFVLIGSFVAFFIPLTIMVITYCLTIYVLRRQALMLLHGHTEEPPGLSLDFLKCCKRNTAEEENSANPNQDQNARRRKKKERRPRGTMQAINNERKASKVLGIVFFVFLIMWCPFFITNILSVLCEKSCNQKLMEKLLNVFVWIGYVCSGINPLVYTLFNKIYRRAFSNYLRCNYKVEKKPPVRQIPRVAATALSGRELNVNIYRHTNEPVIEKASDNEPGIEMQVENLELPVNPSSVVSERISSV
pKi: −log10 of the molar value.

[
  {
    "substance-smiles": "C[C@@H]1CN(C(=N)N)N=C1c1ccc(F)cc1O",
    "subject-of-test": "5-HT2CR (Homo sapiens, UniProt P28335)",
    "pKi": 7.22
  }
]

====

# subject-of-test: Adrenergic β1 (hu) (Homo sapiens, UniProt P08588)
# Construct: Eurofins Panlabs 302230
# Sequence (P08588 whole entry): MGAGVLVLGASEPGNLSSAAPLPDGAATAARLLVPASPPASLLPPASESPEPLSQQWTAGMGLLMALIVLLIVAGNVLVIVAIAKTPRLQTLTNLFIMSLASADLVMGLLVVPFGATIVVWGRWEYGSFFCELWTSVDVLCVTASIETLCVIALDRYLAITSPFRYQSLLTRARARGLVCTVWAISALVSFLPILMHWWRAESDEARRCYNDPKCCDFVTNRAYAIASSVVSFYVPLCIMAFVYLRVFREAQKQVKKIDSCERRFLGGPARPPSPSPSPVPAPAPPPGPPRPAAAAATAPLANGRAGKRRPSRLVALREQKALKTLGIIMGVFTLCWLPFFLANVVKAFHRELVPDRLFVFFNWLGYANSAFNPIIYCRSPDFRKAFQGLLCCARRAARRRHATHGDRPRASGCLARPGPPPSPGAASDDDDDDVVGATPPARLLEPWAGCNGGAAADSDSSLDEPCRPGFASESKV
# measurement-protocol: Functionality assay, Adenylyl Cyclase, Eurofins Panlabs 302230
# Assay type: cell-based

[
  {
    "substance-smiles": "C[C@@H]1CN(C(=N)N)N=C1c1ccc(F)cc1O",
    "subject-of-test": "Adrenergic β1 (hu) (Homo sapiens, UniProt P08588)",
    "IC50": "32.5 µM"
  }
]

====

# subject-of-test: Serotonin 5-HT6 (hu) (Homo sapiens)
# Construct: 318000 (adenylyl cyclase)
# Sequence (P50406 whole entry): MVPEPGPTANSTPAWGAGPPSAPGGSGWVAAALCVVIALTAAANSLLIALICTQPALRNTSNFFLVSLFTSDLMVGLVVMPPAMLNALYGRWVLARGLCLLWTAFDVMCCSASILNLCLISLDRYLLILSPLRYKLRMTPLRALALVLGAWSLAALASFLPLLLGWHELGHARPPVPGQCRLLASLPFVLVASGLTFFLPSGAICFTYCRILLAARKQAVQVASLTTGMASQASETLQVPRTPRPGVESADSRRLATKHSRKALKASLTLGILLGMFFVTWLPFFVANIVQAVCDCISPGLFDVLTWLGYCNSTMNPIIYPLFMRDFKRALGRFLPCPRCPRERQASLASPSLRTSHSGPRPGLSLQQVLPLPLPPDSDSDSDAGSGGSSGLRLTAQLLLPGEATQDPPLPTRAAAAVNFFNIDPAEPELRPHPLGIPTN
# measurement-protocol: Functionality assay, Adenylyl Cyclase, Eurofins Panlabs 318000
# Format: cell-based
# Description: Effects were considered significant if AM1476's mean value was three or more SDs above the vehicle control mean in the agonist assay or three or more SDs below the positive control agonist (5‐nM α‐methylserotonin) mean in the antagonist assay. AM1476 was screened for selectivity against approximately 200 targets using a Eurofins Panlabs Spectrum screen panel including enzymatic and receptor binding assays.

[
  {
    "substance-smiles": "C[C@@H]1CN(C(=N)N)N=C1c1ccc(F)cc1O",
    "subject-of-test": "Serotonin 5-HT6 (hu) (Homo sapiens)",
    "IC50 / µM": 4.55
  }
]
